FYI, the data here is from ChEMBL document CHEMBL1139698.

Species: Homo sapiens
Test name: Selectivity for MMP13 over MMP8
Measurement name: Selectivity ratio
Give the value as a plain number.

• CCOCCC1(Oc2ccc(Oc3ccc(-c4nnc(-c5ccccc5)o4)cc3)cc2)C(=O)NC(=O)NC1=O = 98

Which Selectivity ratio value is on record for `CCOCCC1(Oc2ccc(Oc3ccc(C(=O)Nc4ccccn4)cc3)cc2)C(=O)NC(=O)NC1=O` ?
15

Could you share which Selectivity ratio value was measured for `CCOCCC1(Oc2ccc(Oc3ccc(-c4nc(-c5ccccc5)no4)cc3)cc2)C(=O)NC(=O)NC1=O` ?
208

Returns the measured Selectivity ratio for the input compound. Input: `CCOCCC1(Oc2ccc(Oc3ccc(-c4nc(-c5ccc(F)cc5)no4)cc3)cc2)C(=O)NC(=O)NC1=O`
210

Look up Selectivity ratio: `CCOCCC1(Oc2ccc(Oc3ccc(-c4nc(-c5cccc(F)c5)co4)cc3)cc2)C(=O)NC(=O)NC1=O`
133

I am curious: what Selectivity ratio value has been reported for `CCOCCC1(Oc2ccc(Oc3ccc(C(=O)NCc4cccc(F)c4)cc3)cc2)C(=O)NC(=O)NC1=O` ?
25

What Selectivity ratio value was documented for this compound, `CCOCCC1(Oc2ccc(Oc3ccc(-c4nc(-c5ccc(C#N)cc5)co4)cc3)cc2)C(=O)NC(=O)NC1=O` ?
233

GET /values?readout=Selectivity ratio&item= `COCCC1(Oc2ccc(Oc3ccc(-c4nc(-c5ccccc5C#N)co4)cc3)cc2)C(=O)NC(=O)NC1=O`
516

Looking for the measured Selectivity ratio of `CCOCCC1(Oc2ccc(Oc3ccc(-c4nc(-c5ccncc5)co4)cc3)cc2)C(=O)NC(=O)NC1=O` , can you help?
250

Selectivity ratio lookup needed for `CCOCCC1(Oc2ccc(Oc3ccc(-c4nc(-c5ccccc5)co4)cc3)cc2)C(=O)NC(=O)NC1=O` , thanks.
115

###

Recorded Selectivity ratio by entry
Organism: Homo sapiens
Test name: Selectivity for MMP13 over MMP2
Just the number, please, no unit after it.

Check out these entries, answers already filled in.
• CCOCCC1(Oc2ccc(Oc3ccc(-c4nc(-c5ccccc5)no4)cc3)cc2)C(=O)NC(=O)NC1=O = 54
• COCCC1(Oc2ccc(Oc3ccc(-c4nc(-c5ccccc5F)co4)cc3)cc2)C(=O)NC(=O)NC1=O = 288
• COCCC1(Oc2ccc(Oc3ccc(-c4nc(-c5ccc(F)cc5)co4)cc3)cc2)C(=O)NC(=O)NC1=O = 356
• CCOCCC1(Oc2ccc(Oc3ccc(C(=O)NCc4ccccc4)cc3)cc2)C(=O)NC(=O)NC1=O = 21
• CCOCCC1(Oc2ccc(Oc3ccc(-c4nnc(-c5ccccc5)o4)cc3)cc2)C(=O)NC(=O)NC1=O = 66

Entry `COCCC1(Oc2ccc(Oc3ccc(-c4nc(-c5cccc(C#N)c5)co4)cc3)cc2)C(=O)NC(=O)NC1=O` has what Selectivity ratio?
29

Record request: Selectivity ratio value, item `COCCC1(Oc2ccc(Oc3ccc(-c4nc(-c5ccccc5C#N)co4)cc3)cc2)C(=O)NC(=O)NC1=O`
173

Given `CCOCCC1(Oc2ccc(Oc3ccc(C(=O)NCc4ccc(F)cc4)cc3)cc2)C(=O)NC(=O)NC1=O` , state its recorded Selectivity ratio.
17

Which Selectivity ratio is listed for `CCOCCC1(Oc2ccc(Oc3ccc(-c4cnc(-c5ccccc5)o4)cc3)cc2)C(=O)NC(=O)NC1=O` ?
165
